- system: CYP 2C9 (Homo sapiens)
- Sequence (P11712 whole entry): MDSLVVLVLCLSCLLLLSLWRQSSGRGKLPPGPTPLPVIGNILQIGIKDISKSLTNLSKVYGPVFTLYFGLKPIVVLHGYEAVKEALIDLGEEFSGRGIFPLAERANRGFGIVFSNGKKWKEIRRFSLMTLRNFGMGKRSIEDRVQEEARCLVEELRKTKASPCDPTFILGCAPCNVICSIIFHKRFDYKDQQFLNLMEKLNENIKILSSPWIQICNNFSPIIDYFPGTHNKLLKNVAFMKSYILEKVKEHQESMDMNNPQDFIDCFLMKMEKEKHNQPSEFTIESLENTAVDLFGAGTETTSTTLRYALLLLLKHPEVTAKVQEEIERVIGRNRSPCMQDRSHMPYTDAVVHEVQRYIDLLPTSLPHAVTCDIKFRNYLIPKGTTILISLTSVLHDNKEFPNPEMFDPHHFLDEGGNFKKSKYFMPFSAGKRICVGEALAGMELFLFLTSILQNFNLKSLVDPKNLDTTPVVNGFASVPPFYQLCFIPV
- assay-text: Kinetics of fluorogenic substrates with CYP 2C9
- Format: biochemical
- experimental-conditions: CYP 2C9, substrate 1.25 uM
measured-property: v (1.25 uM), turnover rate at 1.25 μM (min⁻¹)

COCOc1ccc2c(C(F)(F)F)cc(=O)oc2c1; 0.00

[I] N#Cc1cc2ccc(OCc3ccccc3)cc2oc1=O [BCC, 7-Benzyloxy-3-cyanocoumarin, reference compound]
[II] COc1ccc(COc2ccc3nc4ccc(=O)cc-4oc3c2)cc1
Could you check which of I and II has a smaller value for v (1.25 uM), turnover rate at 1.25 μM? Kindly give the label for the entry you pick. I
(I: 0.00 min⁻¹, II: 0.02 min⁻¹)

These data points were gathered from patent US6143492A.
